Value source: paper PMC12833874

Molecular target: SNAP-NOPr (Homo sapiens)
Construct: expressed in transfected cells
Sequence (P41146 whole entry): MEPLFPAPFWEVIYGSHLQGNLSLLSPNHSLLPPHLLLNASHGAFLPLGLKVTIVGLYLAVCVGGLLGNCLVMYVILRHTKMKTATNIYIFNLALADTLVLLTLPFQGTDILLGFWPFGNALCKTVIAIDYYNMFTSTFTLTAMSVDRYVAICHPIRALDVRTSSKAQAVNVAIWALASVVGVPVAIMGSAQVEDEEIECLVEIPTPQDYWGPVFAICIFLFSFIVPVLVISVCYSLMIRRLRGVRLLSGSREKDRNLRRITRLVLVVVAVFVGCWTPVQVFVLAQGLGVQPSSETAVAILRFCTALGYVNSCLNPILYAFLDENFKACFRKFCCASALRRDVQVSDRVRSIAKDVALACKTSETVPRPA
Assay: Confocal imaging of fluorescent ligand binding, live FlpIn CHO cells stably expressing SNAP-NOPr
Assay type: cell-based
Settings: 1 μM, 30 min at 37 °C, live cells
measurement-label: fluorescent ligand binding (confocal images)

Input CN1/C(=C/C=C/C=C/C2=[N+](CCCCCC(=O)NCCOc3cccc(CN4CCC[C@@H]4C(=O)NCCCN4CCC5(CC4)OCc4ccccc45)c3)c3ccc(S(=O)(=O)[O-])cc3C2(C)C)C(C)(C)c2cc(S(=O)(=O)[O-])ccc21.[K+] [13g] . Output fluorescent ligand binding (confocal images): more pronounced binding

Field fluorescent ligand binding (confocal images) (entry CN1/C(=C/C=C/C=C/C2=[N+](CCCCCC(=O)NCCOc3ccc(C(=O)N4CCC[C@@H]4C(=O)NCCCN4CCC5(CC4)OCc4ccccc45)cc3)c3ccc(S(=O)(=O)[O-])cc3C2(C)C)C(C)(C)c2cc(S(=O)(=O)[O-])ccc21.[K+] [13f] ) reads Binding was observed

// sample CN1/C(=C/C=C/C=C/C2=[N+](CCCCCC(=O)NCCOc3ccc(CN4CCC[C@@H]4C(=O)NCCCN4CCC5(CC4)OCc4ccccc45)cc3)c3ccc(S(=O)(=O)[O-])cc3C2(C)C)C(C)(C)c2cc(S(=O)(=O)[O-])ccc21.[K+] [13h] , its fluorescent ligand binding (confocal images) was more pronounced binding

Per the record, CN1/C(=C/C=C/C=C/C2=[N+](CCCCCC(=O)NCCOc3cccc(C(=O)N4CCC[C@@H]4C(=O)NCCCN4CCC5(CC4)OCc4ccccc45)c3)c3ccc(S(=O)(=O)[O-])cc3C2(C)C)C(C)(C)c2cc(S(=O)(=O)[O-])ccc21.[K+] [13e] has fluorescent ligand binding (confocal images) of Binding was observed
